Quick list: binding signal per entry.
system tested: T1, RBFOX1 RRM RbFoxmut (Fox-RRM*) (Homo sapiens, UniProt Q9NWB1 109-208, R118D;E147R;N151S;E152T)
T1 sequence: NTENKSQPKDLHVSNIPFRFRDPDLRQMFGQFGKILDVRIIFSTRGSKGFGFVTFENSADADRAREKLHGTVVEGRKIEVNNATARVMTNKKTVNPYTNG
test summary: EMSA; HiTS-Eq, 1 nM pool, 10 min; buffer printed only for the single-RNA assays: 10 mM Tris pH 7.5, 150 mM NaCl, 3.4 mM EDTA, 0.001% NP-40, 30 C
conditions used: tags: His6 N-terminal (pET28a); label: 5' 32P
The full ranking holds about 16,000 sequences; the median of “ka relative to ugcaugu” is about 0.096, and the highest 2% start at about 0.35. The list comes from a sample in which the highest values are over-represented; it also holds close analogues and randomly drawn sequences.
quantity name: binding signal

• AUGUAUG (DNA:RNA) RNA: GGGAGACCGGAAUUCAGAUUGUCCAUGUAUGUUAAAUCCCGUCGUAGCCACCA DNA 1: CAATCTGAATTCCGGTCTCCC DNA 2: TGGTGGCTACGACGGGATT = 1.19 KA relative to UGCAUGU
• GGAAACG (DNA:RNA) RNA: GGGAGACCGGAAUUCAGAUUGUCCGGAAACGUUAAAUCCCGUCGUAGCCACCA DNA 1: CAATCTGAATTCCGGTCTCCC DNA 2: TGGTGGCTACGACGGGATT = 0.0703 KA relative to UGCAUGU
• GAGCACA (DNA:RNA) RNA: GGGAGACCGGAAUUCAGAUUGUCCGAGCACAUUAAAUCCCGUCGUAGCCACCA DNA 1: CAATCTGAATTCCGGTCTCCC DNA 2: TGGTGGCTACGACGGGATT = 0.0821 KA relative to UGCAUGU
• UGAAUAU (DNA:RNA) RNA: GGGAGACCGGAAUUCAGAUUGUCCUGAAUAUUUAAAUCCCGUCGUAGCCACCA DNA 1: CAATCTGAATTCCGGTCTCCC DNA 2: TGGTGGCTACGACGGGATT = 0.0814 KA relative to UGCAUGU
• UCUGACU (DNA:RNA) RNA: GGGAGACCGGAAUUCAGAUUGUCCUCUGACUUUAAAUCCCGUCGUAGCCACCA DNA 1: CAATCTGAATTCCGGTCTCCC DNA 2: TGGTGGCTACGACGGGATT = 0.0694 KA relative to UGCAUGU
• UGACUUG (DNA:RNA) RNA: GGGAGACCGGAAUUCAGAUUGUCCUGACUUGUUAAAUCCCGUCGUAGCCACCA DNA 1: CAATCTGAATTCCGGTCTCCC DNA 2: TGGTGGCTACGACGGGATT = 0.272 KA relative to UGCAUGU
• AUGUAAA (DNA:RNA) RNA: GGGAGACCGGAAUUCAGAUUGUCCAUGUAAAUUAAAUCCCGUCGUAGCCACCA DNA 1: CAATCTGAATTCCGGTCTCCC DNA 2: TGGTGGCTACGACGGGATT = 0.169 KA relative to UGCAUGU
• CCAGUUC (DNA:RNA) RNA: GGGAGACCGGAAUUCAGAUUGUCCCCAGUUCUUAAAUCCCGUCGUAGCCACCA DNA 1: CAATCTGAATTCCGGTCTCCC DNA 2: TGGTGGCTACGACGGGATT = 0.073 KA relative to UGCAUGU
• CACCCGC (DNA:RNA) RNA: GGGAGACCGGAAUUCAGAUUGUCCCACCCGCUUAAAUCCCGUCGUAGCCACCA DNA 1: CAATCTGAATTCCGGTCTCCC DNA 2: TGGTGGCTACGACGGGATT = 0.0852 KA relative to UGCAUGU

All figures here come from paper PMC9911399.
